assay: Solubility in aqueous ethanol (UV method); assay type: physicochemical; details: doxycycline alkane sulfonates and alkyl sulfates, 20% aqueous ethanol
Property measured: Solubility (µg/mL)

Reference set, count: 4
CC1c2cccc(O)c2C(O)=C2C(=O)C3(O)C(O)=C(C(N)=O)C(=O)C(N(C)C)C3C(O)C21.CCCCCCCCCCOS(=O)(=O)O (stereo not drawn) : 3777
CC1c2cccc(O)c2C(O)=C2C(=O)C3(O)C(O)=C(C(N)=O)C(=O)C(N(C)C)C3C(O)C21.CCCCCCCCCCCCCCOS(=O)(=O)O (stereo not drawn) : 117.8
CC1c2cccc(O)c2C(O)=C2C(=O)C3(O)C(O)=C(C(N)=O)C(=O)C(N(C)C)C3C(O)C21.CCCCCCCCCCCCCCS(=O)(=O)O (stereo not drawn) : 55.1
CC1c2cccc(O)c2C(O)=C2C(=O)C3(O)C(O)=C(C(N)=O)C(=O)C(N(C)C)C3C(O)C21.CCCCCCCCCCCCCCCCCCOS(=O)(=O)O (stereo not drawn) : 5.23

I: CC1c2cccc(O)c2C(O)=C2C(=O)C3(O)C(O)=C(C(N)=O)C(=O)C(N(C)C)C3C(O)C21.CCCCCCCCCCCCCCCCOS(=O)(=O)O (stereo not drawn)
II: CC1c2cccc(O)c2C(O)=C2C(=O)C3(O)C(O)=C(C(N)=O)C(=O)C(N(C)C)C3C(O)C21.CCCCCCCCCCCCCCCCCCS(=O)(=O)O (stereo not drawn)
[in] Would you mind telling me which has the lower recorded Solubility between I and II ? Answer format: the label of the selected item.
[out] II

P: CC1c2cccc(O)c2C(O)=C2C(=O)C3(O)C(O)=C(C(N)=O)C(=O)C(N(C)C)C3C(O)C21.CCCCCCCCCCCCS(=O)(=O)O (stereo not drawn)
Q: CC1c2cccc(O)c2C(O)=C2C(=O)C3(O)C(O)=C(C(N)=O)C(=O)C(N(C)C)C3C(O)C21.CCCCCCCCCCCCCCCCS(=O)(=O)O (stereo not drawn)
R: CC1c2cccc(O)c2C(O)=C2C(=O)C3(O)C(O)=C(C(N)=O)C(=O)C(N(C)C)C3C(O)C21.CCCCCCCCCCS(=O)(=O)O (stereo not drawn)
[in] Exam item: list the entries in increasing order of Solubility. Response format: the labels, sorted as the prompt asks.
[out] Q, P, R
(Q: 10.34 µg/mL, P: 320.3 µg/mL, R: 3165 µg/mL)

---

experiment: Solubility in aqueous ethanol (UV method); type: physicochemical; conditions: doxorubicin alkyl sulfates and alkane sulfonates, 30% ethanol (v/v)
Property measured: Solubility (µg/mL)

I: CCCCCCCCCCCCCCS(=O)(=O)O.COc1cccc2c1C(=O)c1c(O)c3c(c(O)c1C2=O)CC(O)(C(=O)CO)CC3OC1CC(N)C(O)C(C)O1 (stereo not drawn) [doxorubicin CnH2n+1SO3^− n=14]
II: CCCCCCCCCCCCCCCCCCOS(=O)(=O)O.COc1cccc2c1C(=O)c1c(O)c3c(c(O)c1C2=O)CC(O)(C(=O)CO)CC3OC1CC(N)C(O)C(C)O1 (stereo not drawn) [doxorubicin CnH2n+1OSO3^− n=18]
III: CCCCCCCCCCS(=O)(=O)O.COc1cccc2c1C(=O)c1c(O)c3c(c(O)c1C2=O)CC(O)(C(=O)CO)CC3OC1CC(N)C(O)C(C)O1 (stereo not drawn) [doxorubicin CnH2n+1SO3^− n=10]
[in] Sort the items above on Solubility, descending. Returns: the labels listed in the requested order.
[out] III, I, II
(III: 1064 µg/mL, I: 45.96 µg/mL, II: 2.6 µg/mL)
